These entries and their values trace back to patent US20190351049A1.

subject-of-test: MERS RBD-hFc (MERS-CoV (isolate EMC/2012))
assay-info: SPR Biacore, captured mAb, 25 C
endpoint-label: kon (M⁻¹ s⁻¹)
Answer format: numeric, M⁻¹ s⁻¹ implied, no suffix.

For orientation, consider the following solved cases.
binder | kon (M⁻¹ s⁻¹)
H2aM15270N (antibody, V domains shown) VH: EVQLLESGGGLEQPGGSLRLSCAASGFTFSSYAMIWVRQAPGKGLEWVSTISGSGVNTYYADSVKGRFTISRDNSKNTLHLQMNSLRAEDTAVYHCAKEGLDCANGVCYNYYGMDVWGQGTTVTVSS VL: DIQMTQSPSSLSASVGDRVTITCRASQSINSFLNWYHQKPGKAPKFLIYSASNLQSGVPSRFSGSGSGTDFTLTISSLQPEDFSTYYCQQSYSIPLTFGGGTKVEIK | 779000
H1H15188P (antibody, V domains shown) VH: QVQLVQSGAEVKKPGSSVKVSCKASGGSFSVYAISWVRQAPGQGLEWMGGIIPIFGTANYAQKFQDRFTITTDESTSTAYMELSSLRSEDTAMYYCAREGDIVVLPAGKGGMDVWGQGTTVTVSS VL: DIVMTQSPLSLPVTPGEPASISCRSSQSLLHGNGYNYLDWYLQKPGQSPQLLIYLVSHRASGVPDRFSGSGSGTDFTLKISRVEAEDVGVYYCMQALQSPWTFGQGTKVEIK | 1.48e+06

Please turn your attention to the following entry.
Need kon, item H2aM15279N (antibody, V domains shown) VH: EVQLLESGGGLVQTGGSLRLSCAASGFTFSNYAMSWVRQAPGKGLEWVSAISDRGGSIYYADSVKGRFTISRDNSKNTKYLQMDSLRAEDTAVYYCAQDRGFGVFDYWGQGTLVTVSS VL: DIQMTQSPSSLSASVGDRVTITCQASQDIGNYLNWFQQRPGKAPNLLIYGASNLETGVPSRFSGGGSGTDFTFTISSLQPEDIATYFCQQYDNLPFTFGPGTKVEIK
870000
